Source of measurements: ChEMBL document CHEMBL4811303

assay: Selectivity index, ratio of IC50 for cytotoxicity against bovine MDBK cells to IC50 for Trypanocidal activity against Trypanosoma congolense
Assign selectivity ratio to each entry below.
Answers are plain numbers.

Smiles Input: CC(=O)Oc1ccccc1-c1cnc(-c2cccc(OC(C)=O)c2OC(C)=O)o1
Data Value: 6.6
--
Smiles Input: COc1cccc(-c2ncc(-c3ccccc3OC)o2)c1
Data Value: 24
--
Smiles Input: Oc1ccccc1-c1nnc(-c2cccc(O)c2O)o1
Data Value: 8.8
--
Smiles Input: Oc1ccc(O)c(-c2cnc(-c3ccccc3)o2)c1
Data Value: 1.6
--
Smiles Input: COc1cccc(-c2ncc(-c3ccc4ccccc4c3)o2)c1OC
Data Value: 0.93
--
Smiles Input: Oc1ccccc1-c1nnc(-c2cccc(O)c2O)s1
Data Value: 16
--
Smiles Input: COc1ccccc1-c1cnc(-c2cccc(OC)c2OC)s1
Data Value: 20
--
Smiles Input: COc1cccc(-c2ncc(-c3ccccc3OCc3ccccc3)o2)c1OC
Data Value: 13

# selectivity ratio of "COc1cccc(-c2ncc(-c3ccccc3C)o2)c1OC" = 19

----------
assay: Selectivity index, ratio of IC50 for cytotoxicity against bovine MDBK cells to IC50 for Trypanocidal activity against Trypanosoma brucei rhodesiense
Consider the following molecules; for each one, report its selectivity ratio.
Give bare numbers.

See these solved cases before continuing.
Smiles Input: COc1cccc(-c2ncc(-c3ccccc3C)o2)c1OC
Experimental Endpoint: selectivity ratio
Data Value: 1.4
//
Smiles Input: Oc1ccccc1-c1nnc(-c2cccc(O)c2O)o1
Experimental Endpoint: selectivity ratio
Data Value: 3.1

Please look at the items below and tell me selectivity ratio for each one, in order.
1. COc1cccc(-c2cnc(-c3cccc(OC)c3OC)o2)c1
2. COc1ccccc1-c1cnc(-c2cccc(OC)c2OC)s1
3. CC(=O)Oc1ccc(OC(C)=O)c(-c2cnc(-c3cc(OC(C)=O)ccc3OC(C)=O)o2)c1

1: 1.3; 2: 3.9; 3: 0.63

----------
tested on: Trypanosoma brucei rhodesiense; assay: Trypanocidal activity against Trypanosoma brucei rhodesiense assessed as reduction in intracellular ATP production incubated for 72 hrs by CellTiter-Glo luminescent cell viability assay; format: functional, organism-based
Experimental Endpoint: IC50

Smiles Input: COc1ccc(OC)c(-c2cnc(-c3cccc(OC)c3OC)o2)c1
Data Value: > 73.2 µM

Record IC50 per entry; entries follow.
1. COCOc1ccccc1-c1cnc(-c2cccc(OC)c2OC)o1
2. CC(=O)Oc1ccc(OC(C)=O)c(-c2cnc(-c3ccccc3)o2)c1
3. COc1cccc(-c2cnc(-c3cccc(OC)c3)o2)c1
4. CC(=O)Oc1ccc(OC(C)=O)c(-c2ncc(-c3ccccc3OC(C)=O)o2)c1
5. COc1cccc(-c2ncc(-c3ccccc3OCc3ccccc3)o2)c1OC
6. Oc1ccc(O)c(-c2ncc(-c3ccccc3O)o2)c1
7. COc1ccccc1-c1cnc(-c2ccccc2OC)o1
8. COc1cccc(-c2cnc(-c3cccc(OC)c3OC)o2)c1OC

1: 26.2 µM; 2: 64.4 µM; 3: 66.5 µM; 4: 56 µM; 5: 15.8 µM; 6: 84.2 µM; 7: > 88.9 µM; 8: 70.2 µM

Would you mind listing IC50 for each of the following compounds?
1. CC(=O)Oc1ccc(OC(C)=O)c(-c2cnc(-c3cc(OC(C)=O)ccc3OC(C)=O)o2)c1
2. COc1ccccc1-c1cnc(-c2c(OC)cccc2OC)o1

1. 47.4 µM
2. 18.4 µM

----------
experiment: Selectivity index, ratio of IC50 for cytotoxicity against bovine MDBK cells to IC50 for Trypanocidal activity against Trypanosoma brucei brucei; settings: cattle
Experimental Endpoint: selectivity ratio
Give bare numbers.

Some solved cases for reference:
Smiles Input: Oc1ccc(O)c(-c2cnc(-c3cc(O)ccc3O)o2)c1
selectivity ratio: 0.41
--
Smiles Input: COc1cccc(-c2ncc(-c3ccc4ccccc4c3)o2)c1OC
selectivity ratio: 0.6

Quick batch: selectivity ratio for everything below.
1. Oc1ccccc1-c1nnc(-c2cccc(O)c2O)o1
2. COc1cccc(-c2ncc(-c3ccccc3C)o2)c1OC
3. Oc1ccc(O)c(-c2cnc(-c3ccccc3)o2)c1
4. Oc1ccc(O)c(-c2ncc(-c3ccccc3O)o2)c1
5. Oc1ccccc1-c1cnc(-c2cccc(O)c2O)o1
6. Oc1ccccc1-c1cnc(-c2cccc(O)c2O)s1
7. COc1ccc(-c2cnc(-c3cccc(OC)c3OC)o2)cc1

1. 3.1
2. 1.5
3. 0.36
4. 3
5. 0.77
6. 2.6
7. 0.3
